Biological target: MELK (Homo sapiens)
Sequence (Q14680 whole entry, looked up): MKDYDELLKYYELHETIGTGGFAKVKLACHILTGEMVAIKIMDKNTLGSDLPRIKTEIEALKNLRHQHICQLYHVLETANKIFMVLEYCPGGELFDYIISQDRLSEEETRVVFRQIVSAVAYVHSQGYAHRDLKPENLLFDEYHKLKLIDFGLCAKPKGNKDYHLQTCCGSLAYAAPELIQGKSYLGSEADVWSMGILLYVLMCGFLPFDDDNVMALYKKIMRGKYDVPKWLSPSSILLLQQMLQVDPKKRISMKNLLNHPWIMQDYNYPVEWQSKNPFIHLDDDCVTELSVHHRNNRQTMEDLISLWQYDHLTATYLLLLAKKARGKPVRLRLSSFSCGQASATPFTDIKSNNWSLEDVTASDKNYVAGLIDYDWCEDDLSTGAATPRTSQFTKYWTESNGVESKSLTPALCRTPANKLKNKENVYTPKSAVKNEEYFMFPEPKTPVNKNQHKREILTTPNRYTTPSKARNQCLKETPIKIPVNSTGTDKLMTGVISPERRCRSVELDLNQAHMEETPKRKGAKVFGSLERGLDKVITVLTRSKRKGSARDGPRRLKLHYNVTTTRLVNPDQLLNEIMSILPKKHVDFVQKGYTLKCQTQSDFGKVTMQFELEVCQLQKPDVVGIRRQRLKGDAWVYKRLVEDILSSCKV
Test: Kinase assay: MELK activity, phosphorylation of FITC-labeled histone H3 peptide measured by IMAP fluorescence polarization
Format: biochemical
Conditions: MELK kinase assay, IMAP fluorescence polarization, 50 micro-M ATP; read-out: IC50 (μM) (kinase assay)
Structures can show the parent of a compound that is named as a salt.
Assign IC50 to each entry below.

Known results for compounds:
CS(=O)(=O)c1cnc2ccc(-c3cc(F)c(O)c(Cl)c3)cc2c1N[C@H]1CC[C@H](CN2CCCC2)CC1 [Example 891, hydrochloride] :: 0.0095 µM
CC(=O)c1cnc2cc(F)c(-c3cc(Cl)c(O)c(Cl)c3)cc2c1N[C@H]1CC[C@H](CN(C)C)CC1 [Example 903, hydrochloride] :: 0.0017 µM

Return reported IC50 values for all items listed beneath this line.
1. N[C@H]1CC[C@H](Nc2c(C(=O)C3CC3)cnc3ccc(-c4cc(F)c(O)c(Cl)c4)cc23)CC1 [Example 936, hydrochloride]
2. CC(=O)c1cnc2ccc(-c3cc(F)c(O)c(Cl)c3)cc2c1N[C@H]1CC[C@H](C(=O)NCCN(C)C)CC1 [Example 893, hydrochloride]
3. CN(C)C[C@H]1CC[C@H](Nc2c(C(=O)C3CC3)cnc3cc(C(F)(F)F)c(-c4cc(F)c(O)c(Cl)c4)cc23)CC1
4. O=C(c1cnc2ccc(-c3cc(Cl)c(O)c(Cl)c3)cc2c1Nc1ccc(CN2CCCC2)cc1)C1CC1
5. CC(=O)c1cnc2cc(C)c(-c3cc(Cl)c(O)c(Cl)c3)cc2c1Nc1ccc(CN(C)C)cc1 [Example 847, hydrochloride]
6. CCN(C)C[C@H]1CC[C@H](Nc2c(C(C)=O)cnc3ccc(-c4cc(Cl)c(O)c(OC)c4)cc23)CC1 [Example 816, hydrochloride]
7. CN(C)C[C@H]1CC[C@H](Nc2c(C(=O)C(C)(C)C)cnc3ccc(-c4cc(F)c(O)c(Cl)c4)cc23)CC1 [Example 919, hydrochloride]

Reply text:
1. 0.0019 µM
2. 0.0052 µM
3. 0.77 µM
4. 0.15 µM
5. 0.55 µM
6. 0.0027 µM
7. 0.034 µM

Return reported IC50 values for all items listed beneath this line.
1. CCC(=O)c1cnc2ccc(-c3cc(Cl)c(O)c(Cl)c3)cc2c1Nc1ccc(N2CCCC(N)C2)nc1 (centres unmarked)
2. CC(=O)c1cnc2ccc(-c3ccc4nc[nH]c4c3)cc2c1N[C@H]1CC[C@H](CN(C)C)CC1 [Example 911, hydrochloride]
3. CN(C)C[C@H]1CC[C@H](Nc2c(C(=O)C3CC3)cnc3cc(C(F)(F)F)c(-c4cc(Cl)c(O)c(Cl)c4)cc23)CC1
4. CC(=O)c1cnc2ccc(-c3cc(F)c(O)c(Cl)c3)cc2c1N[C@H]1CC[C@H](NC(=O)[C@@H](N)C(C)(C)C)CC1 [Example 914, hydrochloride]
5. CC(=O)c1cnc2ccc(-c3cc(Cl)c(O)c(Cl)c3)cc2c1N[C@H]1CC[C@H](NC(=O)CN(C)C)CC1 [Example 877, hydrochloride]

Reply text:
["0.0016 µM", "0.13 µM", "0.93 µM", "0.028 µM", "0.0027 µM"]
